- Test system: Proteasome
- TEST: Inhibition of chymotrypsin-like activity of 20S proteasome
- Assay type: subcellular
pIC50: −log10 of the molar value.
READOUT_TYPE: pIC50

COc1ccc2c(c1)C(CC(=O)N[C@@H](CC(C)C)C(=O)N[C@H](CC(C)C)C(=O)NCc1ccc(-c3ccccc3)cc1)CC2=O (some centres not stated)
6.31

I = COc1ccc2c(c1)C(CC(=O)N[C@@H](CC(C)C)C(=O)N[C@H](CC(C)C)C(=O)NCc1ccc3c(c1)OCO3)CC2=O (some centres not stated)
II = COc1ccc2c(c1)C(CC(=O)N[C@@H](CC(C)C)C(=O)N[C@H](CC(C)C)C(=O)NCc1c(F)cccc1F)CC2=O (some centres not stated)
III = COc1ccc(CNC(=O)[C@@H](CC(C)C)NC(=O)[C@H](CC(C)C)NC(=O)CC2CC(=O)c3ccc(OC)cc32)cc1 (some centres not stated)
IV = COc1ccc2c(c1)C(CC(=O)N[C@@H](CC(C)C)C(=O)N[C@H](CC(C)C)C(=O)NCc1ccco1)CC2=O (some centres not stated)
INPUT: Order field: pIC50 | Direction: descending (largest first) Labels, requested order.
OUTPUT: II, I, III, IV

meta.source: ChEMBL document CHEMBL1131403
